From: patent US11814367B2

biological target: hGYS1 enzyme (recombinant hGYS1/GN1 protein) (Homo sapiens (Human)); test: GYS1 coupled enzyme assay (PK/LDH); settings: hGYS1/GN1 50 nM, UDP-Glucose 0.8 mM, G6P 1 mM; geometric mean of at least 2 runs
pIC50: −log10 of the molar value.
readout.label: pIC50

Solved entries:
compound=CC(C)c1ccc([C@@H](NC(=O)[C@@H]2CCCN2C(=O)CCC(N)=O)c2ccccc2)cc1 reading=6.55
compound=COc1nc(CC(=O)N2C[C@H](F)C[C@H]2C(=O)N[C@@H](c2ccccc2)c2ccc(C3CC3)c(F)n2)nn1C reading=7.55
compound=Cn1nc(CC(=O)N2C[C@H](F)C[C@H]2C(=O)N[C@@H](c2ccccc2)c2ccc(C3(C)CC3)c(F)c2)c2ccccc21 reading=7.25
compound=CC(=O)NCC(=O)N1CCC[C@H]1C(=O)N[C@@H](c1ccccc1)c1ccc(C(C)C)cc1 reading=7.02

(A) COCCN1CCN(C(=O)OCC(=O)N2C[C@H](F)C[C@H]2C(=O)N[C@@H](c2ccccc2)c2ccc(C3CC3)c(F)c2)CC1
(B) COc1ccc(C2CC2C(=O)N2C[C@H](F)C[C@H]2C(=O)N[C@@H](c2ccccc2)c2ccc(C(C)C)cc2)cc1 (stereo partly shown)
(C) Cc1cnc(CC(=O)N2C[C@H](F)C[C@H]2C(=O)N[C@@H](c2ccccc2)c2ccc(C3CC(F)(F)C3)cn2)o1
Ask | Rank the items in ascending order with respect to pIC50. Answer format: list of labels, ordered as asked.
Reply | B, A, C

---

biological target: hGYS2 enzyme (recombinant hGYS2/GN1 protein) (Homo sapiens (Human)); experiment: GYS2 coupled enzyme assay (PK/LDH); conditions: geometric mean of at least 2 assay runs on separate days, read-out: Avg_IC50
Sequence (P54840 whole entry): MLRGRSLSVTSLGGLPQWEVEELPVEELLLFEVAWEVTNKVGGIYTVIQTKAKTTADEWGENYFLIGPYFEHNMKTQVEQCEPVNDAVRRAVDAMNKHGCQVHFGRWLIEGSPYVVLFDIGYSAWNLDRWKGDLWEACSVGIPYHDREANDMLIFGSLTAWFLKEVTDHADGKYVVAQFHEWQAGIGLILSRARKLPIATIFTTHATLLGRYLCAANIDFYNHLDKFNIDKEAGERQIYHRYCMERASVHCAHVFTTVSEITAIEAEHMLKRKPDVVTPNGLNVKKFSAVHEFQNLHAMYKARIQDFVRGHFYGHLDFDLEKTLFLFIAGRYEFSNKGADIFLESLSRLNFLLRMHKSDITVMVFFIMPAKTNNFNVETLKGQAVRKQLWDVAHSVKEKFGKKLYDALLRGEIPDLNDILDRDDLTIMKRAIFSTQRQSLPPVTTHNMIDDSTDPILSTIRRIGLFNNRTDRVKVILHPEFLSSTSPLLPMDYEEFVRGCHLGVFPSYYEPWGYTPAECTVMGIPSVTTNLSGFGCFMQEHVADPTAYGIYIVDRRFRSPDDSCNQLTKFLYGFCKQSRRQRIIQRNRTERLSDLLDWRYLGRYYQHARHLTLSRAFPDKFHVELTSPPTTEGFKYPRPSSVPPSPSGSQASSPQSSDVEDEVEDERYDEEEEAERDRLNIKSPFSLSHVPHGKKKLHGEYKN
Sequence (P46976 whole entry partner): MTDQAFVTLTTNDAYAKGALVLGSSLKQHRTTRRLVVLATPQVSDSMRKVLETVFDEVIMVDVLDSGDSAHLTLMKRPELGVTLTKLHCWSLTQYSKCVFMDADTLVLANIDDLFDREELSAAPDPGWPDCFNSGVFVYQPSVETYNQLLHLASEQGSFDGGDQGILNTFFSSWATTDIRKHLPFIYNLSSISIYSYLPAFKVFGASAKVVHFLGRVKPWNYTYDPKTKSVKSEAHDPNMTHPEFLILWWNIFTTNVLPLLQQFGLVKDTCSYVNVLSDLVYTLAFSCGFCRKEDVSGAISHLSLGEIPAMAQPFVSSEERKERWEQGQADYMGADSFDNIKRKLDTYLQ
readout.label: IC50

molecule="CC(C)c1ccc([C@@H](NC(=O)[C@@H]2C[C@@H](F)CN2C(=O)CCc2cnn(C)c2)c2ccccc2)cc1 [Compound 76]" reading="> 100 µM"

Data point: Cn1c(=O)n(CC(=O)N2C[C@H](F)C[C@H]2C(=O)N[C@@H](c2ccccc2)c2ccc(C3(C)CC3)c(F)c2)c2ccccc21 [Compound 568] ; IC50 = 94.2 µM

Data point: CC1(c2ccc([C@@H](NC(=O)[C@@H]3C[C@@H](F)CN3C(=O)Cc3cnn[nH]3)c3ccccc3)cc2F)CCC1 [Compound 681] ; IC50 = > 100 µM

Data point: CC(C)c1ccc([C@@H](NC(=O)[C@@H]2C[C@@H](F)CN2C(=O)Cn2ncc(N3CCC3)n2)c2ccccc2)nc1 [Compound 276] ; IC50 = > 100 µM

Data point: CC(C)c1ccc([C@@H](NC(=O)[C@@H]2C[C@@H](F)CN2C(=O)Cc2nnc[nH]2)c2ccccc2)cc1 [Compound 194] ; IC50 = > 100 µM

Data point: O=C(N[C@@H](c1ccccc1)c1ccc(C2CC2)c(F)c1)[C@@H]1C[C@@H](F)CN1C(=O)CN1CCNCC1=O [Compound 465] ; IC50 = > 100 µM

---

Tested on: hGYS1 enzyme / glycogen synthesis in HeLa cells
Assay: GYS1 cell based assay (glycogen synthesis, Glucose-glo)
Design: species or system human
Conditions: 24 h incubation, 20 mM glucose, geometric mean of at least 2 runs
Source text: The GYS1 cell based assay is a bioluminescent assay that quantifies the glucose resulting from glycogen digestion; the quantified glucose is an indirect measure of GYS1 glycogen synthesis. Newly synthesized glycogen is digested using Glucoamylase; the resulting glucose is quantified by using the Glucose-glo assay kit from Promega. […] Luciferin is detected in a luciferase reaction using Ultra-Glo rLuciferase and ATP, and the luminesce produced is proportional to the glucose in the sample. […]
readout.label: IC50 (nM)

Solved entries:
compound="CCC(C)c1ccc(C(NC(=O)[C@@H]2C[C@@H](F)CN2C(=O)Cc2cnn[nH]2)c2ccccc2)cc1F (single isomer, unassigned) [Compound 677]" readout_label=IC50 reading=990
compound="CC(C(=O)N1C[C@H](F)C[C@H]1C(=O)N[C@@H](c1ccccc1)c1ccc(C2CC2)c(F)c1)n1cnc2ccccc21 (single isomer, unassigned) [Compound 809]" readout_label=IC50 reading=190
compound="Cc1cc(C(NC(=O)[C@@H]2C[C@@H](F)CN2C(=O)Cc2cnn[nH]2)c2ccccc2)cc(F)c1C(C)C (single isomer, unassigned) [Compound 680]" readout_label=IC50 reading=270

(a) CC(C)c1ccc([C@@H](NC(=O)[C@@H]2C[C@@H](F)CN2C(=O)C(O)c2cnn[nH]2)c2ccccc2)cc1F (single isomer, unassigned) [Compound 774]
(b) CC(C(=O)N1C[C@H](F)C[C@H]1C(=O)N[C@@H](c1ccccc1)c1ccc(C2(C)CC2)c(F)c1)n1cnc2ccccc21 (single isomer, unassigned) [Compound 567]
(c) CC(C(=O)N1C[C@H](F)C[C@H]1C(=O)N[C@@H](c1ccccc1)c1ccc(C2CC2)c(F)c1)n1cnc2ccccc21 (single isomer, unassigned) [Compound 810]
(d) CC(C)c1ccc([C@@H](NC(=O)[C@@H]2C[C@@H](F)CN2C(=O)C(O)c2cnn[nH]2)c2ccccc2)cc1F (single isomer, unassigned) [Compound 773]
(e) CC(C(=O)N1C[C@H](F)C[C@H]1C(=O)N[C@@H](c1ccccc1)c1ccc(C2(C)CC2)c(F)n1)n1cnc2ccccc21 (single isomer, unassigned) [Compound 587]
Ask | Rank the items in ascending order with respect to IC50. Answer format: list of labels, ordered as asked.
Reply | a, d, e, c, b

---

molecular target: hGYS1 enzyme (recombinant hGYS1/GN1 protein) (Homo sapiens (Human), UniProt P13807); experiment: GYS1 coupled enzyme assay (PK/LDH); settings: hGYS1/GN1 50 nM, UDP-Glucose 0.8 mM, G6P 1 mM; geometric mean of at least 2 runs
Sequence (P13807 whole entry): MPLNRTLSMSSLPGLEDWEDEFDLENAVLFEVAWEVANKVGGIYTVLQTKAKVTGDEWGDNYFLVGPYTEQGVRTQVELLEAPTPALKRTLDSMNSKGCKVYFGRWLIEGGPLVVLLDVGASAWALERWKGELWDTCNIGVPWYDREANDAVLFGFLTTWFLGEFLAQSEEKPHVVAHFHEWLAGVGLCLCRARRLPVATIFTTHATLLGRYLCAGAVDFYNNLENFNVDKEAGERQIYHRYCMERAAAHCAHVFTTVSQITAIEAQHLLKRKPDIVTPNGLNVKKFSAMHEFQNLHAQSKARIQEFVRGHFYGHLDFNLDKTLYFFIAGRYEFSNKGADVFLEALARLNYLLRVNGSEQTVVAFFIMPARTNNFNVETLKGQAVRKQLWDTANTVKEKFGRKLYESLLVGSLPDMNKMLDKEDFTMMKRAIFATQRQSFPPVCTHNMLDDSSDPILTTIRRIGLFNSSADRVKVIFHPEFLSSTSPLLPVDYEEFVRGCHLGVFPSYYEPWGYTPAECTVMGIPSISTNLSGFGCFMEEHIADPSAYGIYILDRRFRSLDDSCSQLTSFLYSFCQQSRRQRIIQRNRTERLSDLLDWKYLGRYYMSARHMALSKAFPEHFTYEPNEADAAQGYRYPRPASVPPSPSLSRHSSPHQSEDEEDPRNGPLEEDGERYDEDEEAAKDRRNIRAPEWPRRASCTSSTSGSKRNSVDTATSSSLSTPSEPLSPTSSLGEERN
Sequence (P46976 whole entry partner): as the sequence (P46976 whole entry partner) above
readout.label: IC50 (nM)

(1) CC(C)c1ccc([C@@H](NC(=O)[C@@H]2C[C@@H](F)CN2C(=O)Cn2nnnc2C(F)(F)F)c2ccccc2)cc1F
(2) CC(=O)N1CCO[C@@H](C)[C@@H]1C(=O)N1C[C@H](F)C[C@H]1C(=O)N[C@@H](c1ccccc1)c1ccc(C(C)C)cc1
Ask | Please tell me which of the two, 1 or 2 , has the higher reported IC50 value. Use the label to indicate which entry you chose.
Reply | 2

(I) CC(C)c1ccc([C@@H](NC(=O)[C@@H]2C[C@@H](F)CN2C(=O)Cc2nncn2C)c2ccccc2)cc1 (stereo in doubt)
(II) CCn1cccc(CC(=O)N2C[C@H](F)C[C@H]2C(=O)N[C@@H](c2ccccc2)c2ccc(C(C)C)c(F)n2)c1=O
Ask | Please tell me which of the two, I or II , has the higher reported IC50 value. Use the label to indicate which entry you chose.
Reply | I

(a) Cc1cc(CCC(=O)N2C[C@H](F)C[C@H]2C(=O)N[C@@H](c2ccccc2)c2ccc(C(C)C)cc2)ccn1
(b) O=C(N[C@@H](c1ccccc1)c1ccc(C2CC2)c(F)c1)[C@@H]1C[C@@H](F)CN1C(=O)Cc1nnc(C(F)(F)F)o1
Ask | Given a and given b , which shows the smaller recorded IC50? Use the label to indicate which entry you chose.
Reply | a
(a: 65 nM, b: 374 nM)

---

Target: hGYS1 enzyme (recombinant hGYS1/GN1 protein) (Homo sapiens (Human), UniProt P13807)
Experiment: GYS1 coupled enzyme assay (PK/LDH)
Settings: hGYS1/GN1 50 nM, UDP-Glucose 0.8 mM, G6P 1 mM; geometric mean of at least 2 runs
Source text: The GYS1 coupled enzyme assay is a kinetic biochemical assay that indirectly quantifies the rate of glycogen synthesis by coupling the conversion of GYS1 substrate UDP-glucose into UDP with downstream enzymatic reactions. UDP is released from UDP-glucose as glucose monomers are linked into the growing glycogen strand by GYS1. […] Oxidation of NADH to NAD+ can be measured continuously with a plate reader by quantifying the decrease in NADH absorbance at 340 nm over time. […]
pIC50: −log10 of the molar value.
readout.label: pIC50

compound="CC(C)c1ccc([C@@H](NC(=O)[C@@H]2C[C@@H](F)CN2C(=O)CCc2cnc[nH]2)c2ccccc2)cc1 [Compound 45]" reading=7.24
compound="CC(=O)N1C[C@H](F)C[C@H]1C(=O)NC(c1cccc(-c2cc(C)n[nH]2)c1)c1ccc(C(C)C)c(F)n1 (single isomer, unassigned) [Compound 696]" reading=6.99
compound="CC(=O)N1CC2(CCC(C(=O)N3C[C@H](F)C[C@H]3C(=O)N[C@@H](c3ccccc3)c3ccc(C(C)C)cc3)O2)C1 (stereo partly drawn) [Compound 163]" reading=6.87

(1) O=C(N[C@@H](c1ccccc1)c1ccc(C2CC2)c(F)c1)[C@@H]1C[C@@H](F)CN1C(=O)COC(=O)N1CCC1 [Compound 451]
(2) CC(C)c1ccc([C@@H](NC(=O)[C@@H]2C[C@@H](F)CN2C(=O)Cc2c[nH]cn2)c2ccccc2)cc1 [Compound 18]
(3) Cc1cc(CC(=O)N2C[C@H](F)C[C@H]2C(=O)N[C@@H](c2ccccc2)c2ccc(C(C)C)cc2)nn1C [Compound 83]
Ask | Hello, I need these entries ordered by pIC50, highest reading first. Thanks! Answer format: list of labels, ordered as asked.
Reply | 3, 2, 1
(3: 7.82, 2: 7.35, 1: 7.02)
